tested on: ANGIOTENSIN II VASOPRESSOR RESPONSE; experiment: AII Challenge: blockade of angiotensin II vasopressor response in conscious SHR; type: in vivo, rat (Conscious Male Okamoto-Aoki SHR); details: SHR n=2; 3 mg/kg i.v.; AII 0.1 mcg/kg IV; 120 min post dose
Assign fulfilled to entries whose Average Change (systolic blood pressure response to AII) meets or exceeds 8 mmHg; assign not fulfilled to the rest.

>>> classification("CCCCc1nc2ccc(C(O)C3CCCS3(=O)=O)cc2c(=O)n1Cc1ccc(-c2ccccc2-c2nn[nH]n2)cc1 (single isomer, unassigned; isomer 1) [Example 15]")
"fulfilled"
>>> classification("CCCCc1nc2ccc(C(O)C3CCN(C)C3=O)cc2c(=O)n1Cc1ccc(-c2ccccc2-c2nn[nH]n2)cc1 (single isomer, unassigned; isomer 1) [Example 32]")
"not fulfilled"
>>> classification("CCCCc1nc2ccc(C(O)C3CCCS3(=O)=O)cc2c(=O)n1Cc1ccc(-c2ccccc2-c2nn[nH]n2)cc1 (single isomer, unassigned; isomer 2) [Example 16]")
"fulfilled"

Enquiry: Answer whether Average Change (systolic blood pressure response to AII) of CCCCc1nc2ccc(C(C)(O)C3CCN(C)C3=O)cc2c(=O)n1Cc1ccc(-c2ccccc2-c2nn[nH]n2)cc1 (single isomer, unassigned; isomer 2) [Example 48] is greater than or equal to 8 mmHg.
Return: fulfilled

Enquiry: Answer whether Average Change (systolic blood pressure response to AII) of CCCCc1nc2ccc(C(OC)C3CCCO3)cc2c(=O)n1Cc1ccc(-c2ccccc2-c2nn[nH]n2)cc1 (single isomer, unassigned) [Example 24] is greater than or equal to 8 mmHg.
Return: not fulfilled

Enquiry: Answer whether Average Change (systolic blood pressure response to AII) of CCCCc1nc2ccc(C(OC)C3CCCO3)cc2c(=O)n1Cc1ccc(-c2ccccc2-c2nn[nH]n2)cc1 (single isomer, unassigned; isomer 1) [Example 23] is greater than or equal to 8 mmHg.
Return: not fulfilled

Enquiry: Answer whether Average Change (systolic blood pressure response to AII) of CCCCc1nc2ccc(C(O)C3CCCN(C)C3=O)cc2c(=O)n1Cc1ccc(-c2ccccc2-c2nn[nH]n2)cc1 (single isomer, unassigned; isomer 1) is greater than or equal to 8 mmHg.
Return: not fulfilled

Enquiry: Answer whether Average Change (systolic blood pressure response to AII) of CCCCc1nc2ccc(C(O)C3CCN(C)C3=O)cc2c(=O)n1Cc1ccc(-c2ccccc2-c2nn[nH]n2)cc1 (single isomer, unassigned; isomer 2) [Example 33] is greater than or equal to 8 mmHg.
Return: fulfilled

Enquiry: Answer whether Average Change (systolic blood pressure response to AII) of CCCCc1nc2ccc(C(C)(O)C3CCN(C)C3=O)cc2c(=O)n1Cc1ccc(-c2ccccc2-c2nn[nH]n2)cc1 (single isomer, unassigned; isomer 1) [Example 47] is greater than or equal to 8 mmHg.
Return: not fulfilled

Enquiry: Answer whether Average Change (systolic blood pressure response to AII) of CCCCc1nc2ccc(C(C)(O)C3CCCN(C)C3=O)cc2c(=O)n1Cc1ccc(-c2ccccc2-c2nn[nH]n2)cc1 (single isomer, unassigned; isomer 2) is greater than or equal to 8 mmHg.
Return: fulfilled

----------
test system: ANGIOTENSIN II VASOPRESSOR RESPONSE; assay: AII Challenge: blockade of angiotensin II vasopressor response in conscious SHR; type: in vivo, rat (Conscious Male Okamoto-Aoki SHR); settings: SHR n=2; 3 mg/kg i.v.; AII 0.1 mcg/kg IV; 90 min post dose
Provide the reported Average Change (systolic blood pressure response to AII) of each item.
Returns: string containing the numeric result and its unit.

>>> val("CCCCc1nc2ccc(C(O)C3CCN(C)C3=O)cc2c(=O)n1Cc1ccc(-c2ccccc2-c2nn[nH]n2)cc1 (single isomer, unassigned; isomer 1) [Example 32]")
"5 mmHg"
>>> val("CCCCc1nc2ccc(C(OC)C3CCCO3)cc2c(=O)n1Cc1ccc(-c2ccccc2-c2nn[nH]n2)cc1 (single isomer, unassigned; isomer 1) [Example 23]")
"8.5 mmHg"
>>> val("CCCCc1nc2ccc(C(O)C3CCCS3(=O)=O)cc2c(=O)n1Cc1ccc(-c2ccccc2-c2nn[nH]n2)cc1 (single isomer, unassigned; isomer 2) [Example 16]")
"22.5 mmHg"
>>> val("CCCCc1nc2ccc(C(O)C3CCCN(C)C3=O)cc2c(=O)n1Cc1ccc(-c2ccccc2-c2nn[nH]n2)cc1 (single isomer, unassigned; isomer 1) [Example 37]")
"5 mmHg"
>>> val("CCCCc1nc2ccc(C(O)C3CCN(C)C3=O)cc2c(=O)n1Cc1ccc(-c2ccccc2-c2nn[nH]n2)cc1 (single isomer, unassigned; isomer 2) [Example 33]")
"7.5 mmHg"

Would you mind giving Average Change (systolic blood pressure response to AII) for every compound in the list below?
1. CCCCc1nc2ccc(C(O)C3CCCS3(=O)=O)cc2c(=O)n1Cc1ccc(-c2ccccc2-c2nn[nH]n2)cc1 (single isomer, unassigned; isomer 1) [Example 15]
2. CCCCc1nc2ccc(C(C)(O)C3CCCN(C)C3=O)cc2c(=O)n1Cc1ccc(-c2ccccc2-c2nn[nH]n2)cc1 (single isomer, unassigned; isomer 2) [Example 53]

Return:
["23 mmHg", "12.5 mmHg"]
